Data origin: patent US10407662B2

- System: human iPS cells
- PROCEDURE DETAILS: Proliferation Evaluation of iPS cells on polypeptide-coated plate
- Format: cell-based
- CONDITION PARAMETERS: addition amount 20 μg/cm^2; 5000 cells/well
Reported The Number (%) of Cells after 3 Days is given for each of the following molecules.

MOLECULE	The Number (%) of Cells after 3 Days
RCP-10: recombinant polypeptide, Met + human vitronectin positions 1-55, 269-373, 374-399, C274S (protein, Synthetic Peptide RCP-10, recombinant polypeptide, Met + human vitronectin positions 1-55, 269-373, 374-399, C274S) MDQESCKGRCTEGFNVDKKCQCDELCSYYQSCCTDYTAECKPQVTRGDVFTMPEDESQEESEGSSLSAVFEHFAMMQRDSWEDIFELLFWGRTSAGTRQPQFISRDWHGVPGQVDAAMAGRIYISGMAPRPSLAKKQRFRHRNRKGYRSQRGHSRGRNQNSRRPSRATWLSLFSSEESNLGANNYD	101.9
RCP-4: recombinant polypeptide, Met + human vitronectin positions 1-55, 312-341, 342-373 (protein, Synthetic Peptide RCP-4) MDQESCKGRCTEGFNVDKKCQCDELCSYYQSCCTDYTAECKPQVTRGDVFTMPEDEQPQFISRDWHGVPGQVDAAMAGRIYISGMAPRPSLAKKQRFRHRNRKGYRSQRGHSRGRNQN	120.7
